assay-info: Antitumor activity against human COLO205 cells after 48 hrs
Type: functional
details: COLO 205, 48 h
Listed compounds paired with reported GI50

Request: // lookup GI50 for `COc1cc(/C(C#N)=C/c2cnc3ccccc3c2)cc(OC)c1OC`
Response: 374 nM

Request: Tell me the measured GI50 of `COc1cc(OC)cc(/C(C#N)=C/c2ccc3ccccc3n2)c1` , please.
Response: 374 nM

Request: Recorded GI50 for `COc1cc(/C(C#N)=C/c2ccc3ccccc3n2)cc(OC)c1OC` , please?
Response: 198 nM

Request: Entry under review: `COc1cc(OC)cc(/C(C#N)=C/c2cnc3ccccc3c2)c1` . Reported GI50?
Response: 398 nM

# credit: ChEMBL document CHEMBL3585283
